IC50: recorded values
Target: Bcr/Abl fusion protein (Homo sapiens)
Sequence (P00519 whole entry, the tested form may be a part): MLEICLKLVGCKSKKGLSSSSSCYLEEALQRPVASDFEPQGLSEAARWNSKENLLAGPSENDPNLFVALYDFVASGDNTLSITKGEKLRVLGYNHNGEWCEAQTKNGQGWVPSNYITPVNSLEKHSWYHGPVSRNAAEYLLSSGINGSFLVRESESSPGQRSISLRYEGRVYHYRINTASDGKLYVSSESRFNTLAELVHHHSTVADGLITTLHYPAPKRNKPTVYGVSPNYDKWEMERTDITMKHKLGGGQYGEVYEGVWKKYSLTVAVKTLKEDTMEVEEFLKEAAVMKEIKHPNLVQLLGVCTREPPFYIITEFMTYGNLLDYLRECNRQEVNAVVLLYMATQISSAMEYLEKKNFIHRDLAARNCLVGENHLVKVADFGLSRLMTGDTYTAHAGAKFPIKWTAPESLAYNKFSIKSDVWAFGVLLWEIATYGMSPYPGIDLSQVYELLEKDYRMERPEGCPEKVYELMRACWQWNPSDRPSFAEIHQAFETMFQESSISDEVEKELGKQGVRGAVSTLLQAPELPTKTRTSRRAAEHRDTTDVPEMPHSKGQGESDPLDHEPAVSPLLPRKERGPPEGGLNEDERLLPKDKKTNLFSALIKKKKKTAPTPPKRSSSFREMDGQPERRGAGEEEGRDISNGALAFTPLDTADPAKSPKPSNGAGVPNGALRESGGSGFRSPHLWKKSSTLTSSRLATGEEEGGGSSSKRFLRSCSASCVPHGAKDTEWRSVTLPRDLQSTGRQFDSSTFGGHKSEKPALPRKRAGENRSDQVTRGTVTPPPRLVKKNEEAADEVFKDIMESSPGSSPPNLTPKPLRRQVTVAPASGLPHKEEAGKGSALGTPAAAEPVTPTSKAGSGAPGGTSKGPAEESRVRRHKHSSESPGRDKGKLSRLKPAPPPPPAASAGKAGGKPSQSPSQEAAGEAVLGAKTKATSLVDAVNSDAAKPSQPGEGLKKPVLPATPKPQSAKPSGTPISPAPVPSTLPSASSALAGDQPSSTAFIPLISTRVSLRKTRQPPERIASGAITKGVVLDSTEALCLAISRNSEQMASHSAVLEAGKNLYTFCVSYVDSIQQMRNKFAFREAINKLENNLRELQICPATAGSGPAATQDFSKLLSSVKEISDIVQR
Sequence (P11274 whole entry, further chain, the tested form may be a part): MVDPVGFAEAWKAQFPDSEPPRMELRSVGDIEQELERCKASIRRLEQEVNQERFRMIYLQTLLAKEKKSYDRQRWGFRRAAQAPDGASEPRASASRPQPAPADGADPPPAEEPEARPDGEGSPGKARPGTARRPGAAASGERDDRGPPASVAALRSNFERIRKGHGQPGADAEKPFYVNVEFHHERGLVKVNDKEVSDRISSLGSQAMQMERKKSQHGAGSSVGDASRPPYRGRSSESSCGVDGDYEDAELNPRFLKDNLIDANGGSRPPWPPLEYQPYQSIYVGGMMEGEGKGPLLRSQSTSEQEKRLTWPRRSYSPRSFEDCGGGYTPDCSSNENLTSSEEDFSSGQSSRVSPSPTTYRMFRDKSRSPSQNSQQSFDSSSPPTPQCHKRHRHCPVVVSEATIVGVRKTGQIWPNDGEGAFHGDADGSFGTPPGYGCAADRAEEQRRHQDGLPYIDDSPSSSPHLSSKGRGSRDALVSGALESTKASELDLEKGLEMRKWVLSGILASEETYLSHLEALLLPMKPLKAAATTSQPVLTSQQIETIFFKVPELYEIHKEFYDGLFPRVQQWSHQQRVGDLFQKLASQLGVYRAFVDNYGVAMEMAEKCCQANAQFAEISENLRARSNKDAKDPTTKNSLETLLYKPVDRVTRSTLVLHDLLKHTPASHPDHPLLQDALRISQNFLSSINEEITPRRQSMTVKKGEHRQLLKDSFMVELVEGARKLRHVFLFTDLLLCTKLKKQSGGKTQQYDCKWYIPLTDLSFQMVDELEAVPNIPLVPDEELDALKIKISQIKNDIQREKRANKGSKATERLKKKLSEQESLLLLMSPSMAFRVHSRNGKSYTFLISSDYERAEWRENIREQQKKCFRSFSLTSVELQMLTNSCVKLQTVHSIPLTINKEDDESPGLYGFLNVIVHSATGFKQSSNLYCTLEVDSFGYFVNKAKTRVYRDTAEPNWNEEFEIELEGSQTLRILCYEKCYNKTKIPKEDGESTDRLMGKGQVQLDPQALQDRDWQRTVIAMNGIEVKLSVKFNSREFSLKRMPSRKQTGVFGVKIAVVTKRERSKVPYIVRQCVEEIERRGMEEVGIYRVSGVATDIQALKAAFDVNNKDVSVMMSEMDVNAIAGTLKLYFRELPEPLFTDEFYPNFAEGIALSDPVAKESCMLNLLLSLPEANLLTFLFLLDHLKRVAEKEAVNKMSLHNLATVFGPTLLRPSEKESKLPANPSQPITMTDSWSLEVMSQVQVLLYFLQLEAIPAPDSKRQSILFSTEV
Assay: Inhibition of human recombinant full length His-tagged Bcr-Abl expressed in baculovirus expression system using tyrosine-2 peptide as substrate after 1 hr in presence of […] ATP by FRET based Z'-LYTE assay

# count of solved cases: 2
CCc1ccc(C(=O)Nc2cc(F)cc(C(F)(F)F)c2)cc1-c1cc(C)cc(-c2cnc3cnccn23)c1 | > 10 µM
CCc1ccc(C(=O)Nc2cccc(C(F)(F)F)c2)cc1-c1cc(F)cc(-c2cnc3cnccn23)c1 | 5.34 µM

Let's switch to this molecule now.
Give IC50 for `CCc1ccc(C(=O)Nc2cccc(C(F)(F)F)c2)cc1-c1ccc(C)c(-c2cnc3cnccn23)c1`
> 10 µM
